I'd be grateful if you could share measured Ki for these entries.
- target_or_test_system: Delta-type opioid receptor (Rattus norvegicus, UniProt P33533)
- Sequence (P33533 whole entry): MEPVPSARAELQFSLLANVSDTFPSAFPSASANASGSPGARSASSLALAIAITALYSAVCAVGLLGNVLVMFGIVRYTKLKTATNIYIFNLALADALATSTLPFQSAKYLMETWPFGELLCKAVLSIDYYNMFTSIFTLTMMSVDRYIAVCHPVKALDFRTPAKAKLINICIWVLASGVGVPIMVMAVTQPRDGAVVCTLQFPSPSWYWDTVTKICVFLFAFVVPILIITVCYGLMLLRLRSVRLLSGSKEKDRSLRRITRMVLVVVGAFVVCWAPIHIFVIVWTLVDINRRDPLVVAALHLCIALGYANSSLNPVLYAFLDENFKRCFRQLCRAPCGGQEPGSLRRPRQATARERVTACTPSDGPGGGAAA
- test: Binding affinity against rat brain opioid receptor delta 1 using [3H]DPDPE radioligand
Where a SMILES comes first, the peptide text is derived from it. [ ]: non-standard residue; d: D form. The star is where a group is joined. Dmt = Cc1cc(O)cc(C)c1C[C@H](N)C(=O)O; NHPhenethyl = c1ccc(CCN*)cc1; NHBn = c1ccc(CN*)cc1; NHPh = c1ccc(N*)cc1; NHtBu = CC(C)(C)N*
Give bare numbers, in µM.

These recorded examples may help you get a feel for the data.
{"molecule": "NC(=O)[C@H](Cc1ccccc1)NC(=O)[C@@H]1CCCN1C(=O)[C@@H](N)Cc1ccc(O)cc1 (H-Tyr-Pro-Phe-NH2)", "units_symbol": "µM", "Ki": 15.9}
{"molecule": "Cc1cc(O)cc(C)c1C[C@H](N)C(=O)N1CCC[C@H]1C(=O)N[C@@H](Cc1ccccc1)C(=O)Nc1cccnc1", "units_symbol": "µM", "Ki": 0.288}
{"molecule": "N[C@@H](Cc1ccc(O)cc1)C(=O)N1CCC[C@H]1C(=O)N[C@@H](Cc1ccccc1)C(=O)Nc1cccc2ccccc12", "units_symbol": "µM", "Ki": 3.64}
{"molecule": "CC(C)(C)NC(=O)[C@H](Cc1ccccc1)NC(=O)[C@@H]1CCCN1C(=O)[C@@H](N)Cc1ccc(O)cc1 (H-Tyr-Pro-Phe-NHtBu)", "units_symbol": "µM", "Ki": 13.3}
{"molecule": "N[C@@H](Cc1ccc(O)cc1)C(=O)N1CCC[C@H]1C(=O)N[C@@H](Cc1ccccc1)C(=O)Nc1cccc2ncccc12", "units_symbol": "µM", "Ki": 12.7}
{"molecule": "Cc1cc(O)cc(C)c1C[C@H](N)C(=O)N1CCC[C@H]1C(=O)N[C@@H](Cc1ccccc1)C(=O)Nc1ccccc1 (H-[Dmt]-Pro-Phe-NHPh)", "units_symbol": "µM", "Ki": 0.0206}
{"molecule": "N[C@@H](Cc1ccc(O)cc1)C(=O)N1CCC[C@H]1C(=O)N[C@@H](Cc1ccccc1)C(=O)Nc1ccncc1", "units_symbol": "µM", "Ki": 25.1}
{"molecule": "N[C@@H](Cc1ccc(O)cc1)C(=O)N1CCC[C@H]1C(=O)N[C@@H](Cc1ccccc1)C(=O)Nc1cccc2cccnc12", "units_symbol": "µM", "Ki": 17.1}
{"molecule": "N[C@@H](Cc1ccc(O)cc1)C(=O)N1CCC[C@H]1C(=O)N[C@@H](Cc1ccccc1)C(=O)Nc1ccccn1", "units_symbol": "µM", "Ki": 19.7}
{"molecule": "Cc1cc(O)cc(C)c1C[C@H](N)C(=O)N1CCC[C@H]1C(=O)N[C@@H](Cc1ccccc1)C(=O)Nc1cccc2ccccc12", "units_symbol": "µM", "Ki": 0.0199}

Hi team, please reply with Ki for each item in this list.
1. Cc1cc(O)cc(C)c1C[C@H](N)C(=O)N1CCC[C@H]1C(=O)N[C@@H](Cc1ccccc1)C(=O)Nc1cccc2cccnc12
2. N[C@@H](Cc1ccc(O)cc1)C(=O)N1CCC[C@H]1C(=O)N[C@@H](Cc1ccccc1)C(=O)Nc1cccnc1

Result:
0.0331
19.4

Hi team, please reply with Ki for each item in this list.
1. Cc1cc(O)cc(C)c1C[C@H](N)C(=O)N1CCC[C@H]1C(=O)N[C@@H](Cc1ccccc1)C(=O)NCCc1ccccc1 (H-[Dmt]-Pro-Phe-NHPhenethyl)
2. Cc1cc(O)cc(C)c1C[C@H](N)C(=O)N1CCC[C@H]1C(=O)N[C@@H](Cc1ccccc1)C(=O)NCc1ccccc1 (H-[Dmt]-Pro-Phe-NHBn)

Result:
1. 0.018
2. 0.0138
